system: RAW-Dual (murine macrophage reporter line); assay: IRF reporter (Lucia luciferase) activity fold change vs agonist alone; higher = enhanced IRF activity; settings: modulator concentration 10 µM; agonist: LPS 0.1 ug/mL
measurement label: IRF reporter

>  <compound>
CCN(CC)CCOC(=O)c1ccc(N)cc1.Cl

>  <measurement label>
IRF reporter

>  <result>
1.22

$$$$
>  <compound>
CCOC(=O)C(Oc1ccc2c(c1)oc(=O)c1cc(OC)ccc12)c1ccccc1 (centres undefined)

>  <measurement label>
IRF reporter

>  <result>
1.02

$$$$
>  <compound>
COc1ccc(C(=O)OCCCN2C(=O)c3ccccc3C2=O)cc1

>  <measurement label>
IRF reporter

>  <result>
1.26

$$$$
>  <compound>
O=C(O)CCC(=O)Nc1ccc(Br)cn1

>  <measurement label>
IRF reporter

>  <result>
1.12

$$$$
>  <compound>
CN(C)CCN(Cc1ccccc1)Cc1cccc(Cl)c1

>  <measurement label>
IRF reporter

>  <result>
1.02

$$$$
>  <compound>
Cc1ccc(Cn2c(N)nc3ccccc32)cc1

>  <measurement label>
IRF reporter

>  <result>
1.09

$$$$
>  <compound>
CCc1c(C)[nH]c2c1C(=O)C(CN1CCOCC1)CC2 (centres undefined)

>  <measurement label>
IRF reporter

>  <result>
0.925

$$$$
>  <compound>
COc1ccc(OCCSc2nc3ccccc3n2CCO)cc1

>  <measurement label>
IRF reporter

>  <result>
1

$$$$
>  <compound>
c1cn2cc(-c3ccc4cn[nH]c4c3)nc(Nc3ccc(N4CCOCC4)cc3)c2n1

>  <measurement label>
IRF reporter

>  <result>
0.897

$$$$
>  <compound>
Cn1c(=O)cc(N2CCC[C@@H](N)C2)n(Cc2ccccc2C#N)c1=O

>  <measurement label>
IRF reporter

>  <result>
1.3

$$$$
>  <compound>
COC(CNC(=O)c1cccc(Br)c1)c1ccccc1C (centres undefined)

>  <measurement label>
IRF reporter

>  <result>
0.96

$$$$
>  <compound>
Cc1cc(=O)nc(SCCc2ccccc2)[nH]1

>  <measurement label>
IRF reporter

>  <result>
1.06

$$$$
>  <compound>
O=[N+]([O-])c1ccc(C=CC=Nc2ccc(-c3nc4ccccc4s3)c(O)c2)cc1

>  <measurement label>
IRF reporter

>  <result>
0.973

$$$$
>  <compound>
O=C(Cc1ccc([N+](=O)[O-])cc1)NN=Cc1ccccn1

>  <measurement label>
IRF reporter

>  <result>
1.05

$$$$
>  <compound>
COC(=O)c1ccc(N2C(=O)c3ccc(Oc4cccc([N+](=O)[O-])c4)cc3C2=O)cc1

>  <measurement label>
IRF reporter

>  <result>
1.33

$$$$
>  <compound>
CC(Cc1ccccc1)NC(=O)C1COc2ccccc2O1 (centres undefined)

>  <measurement label>
IRF reporter

>  <result>
0.965

$$$$
>  <compound>
CN(C)CCOC(=O)COc1ccc(Cl)cc1.Cl

>  <measurement label>
IRF reporter

>  <result>
0.963

$$$$
>  <compound>
c1cc2c3c(cccc3c1)-c1nc3ccccc3nc1-2

>  <measurement label>
IRF reporter

>  <result>
1.32

$$$$
>  <compound>
NCC(=O)O

>  <measurement label>
IRF reporter

>  <result>
1.02

$$$$
>  <compound>
O=C1CCCN1c1ccc(Cn2cc(-c3nc(-c4ccc(F)cc4)no3)ccc2=O)cc1

>  <measurement label>
IRF reporter

>  <result>
1.04

$$$$
>  <compound>
N#CC(=Cc1ccc(-c2ccc(Cl)cc2)o1)C(N)=O

>  <measurement label>
IRF reporter

>  <result>
1.43

$$$$
>  <compound>
O=S1(=O)N=C(NN=Cc2ccccc2O)c2ccccc21

>  <measurement label>
IRF reporter

>  <result>
1.25

$$$$
>  <compound>
CC1=NN(C(=O)CCCc2ccccc2)C(O)(c2ccc(Cl)cc2)C1 (centres undefined)

>  <measurement label>
IRF reporter

>  <result>
1.1

$$$$
>  <compound>
O=C(NC1CCCCCC1)c1ccc([N+](=O)[O-])cc1Cl

>  <measurement label>
IRF reporter

>  <result>
1.08

$$$$
>  <compound>
Cc1c(OCC(F)(F)F)ccnc1CS(=O)c1nc2ccccc2[nH]1 (centres undefined)

>  <measurement label>
IRF reporter

>  <result>
1.11

$$$$
>  <compound>
CC(c1ccccc1)c1nnc(NC(=O)c2ccco2)s1 (centres undefined)

>  <measurement label>
IRF reporter

>  <result>
1.13

$$$$
>  <compound>
NC(Cc1cc(I)c(Oc2cc(I)c(O)c(I)c2)c(I)c1)C(=O)O (centres undefined)

>  <measurement label>
IRF reporter

>  <result>
1.18

$$$$
>  <compound>
COc1ccc(C=NNC(=O)CSc2nnc(-c3ccccc3)n2-c2ccccc2)cc1OC

>  <measurement label>
IRF reporter

>  <result>
0.958

$$$$
>  <compound>
COc1ccc(CC(N)C(=O)NC2C(CO)OC(n3cnc4c(N(C)C)ncnc43)C2O)cc1.Cl.Cl (centres undefined)

>  <measurement label>
IRF reporter

>  <result>
1.03

$$$$
>  <compound>
CC(C)NCC(O)COc1cccc2ccccc12.Cl (centres undefined)

>  <measurement label>
IRF reporter

>  <result>
1.21

$$$$
>  <compound>
N=C(N)c1ccc(OCCCCCOc2ccc(C(=N)N)cc2)cc1.O=S(=O)(O)CCO.O=S(=O)(O)CCO

>  <measurement label>
IRF reporter

>  <result>
1.18

$$$$
>  <compound>
Cc1cccc(-c2nn3c(c2-c2ccnc4ccc(C(N)=O)cc24)CCC3)n1

>  <measurement label>
IRF reporter

>  <result>
0.976

$$$$
>  <compound>
CC1=C(C(=O)Nc2ccc(C)cn2)C(c2ccccc2Cl)C2=C(CCCC2=O)N1 (centres undefined)

>  <measurement label>
IRF reporter

>  <result>
1.43

$$$$
>  <compound>
CCOc1ccc(Nc2oc(-c3ccc(COc4ccc(C)cc4)o3)nc2C#N)cc1

>  <measurement label>
IRF reporter

>  <result>
1.41

$$$$
>  <compound>
COCCOC(=O)C1=C(C)NC(C)=C(C(=O)OC/C=C/c2ccccc2)C1c1cccc([N+](=O)[O-])c1 (centres undefined)

>  <measurement label>
IRF reporter

>  <result>
1.18

$$$$
>  <compound>
CCC1OC(=O)C(C)C(OC2CC(C)(OC)C(O)C(C)O2)C(C)C(OC2OC(C)CC(N(C)C)C2O)C(C)(O)CC(C)CN(C)C(C)C(O)C1(C)O (centres undefined)

>  <measurement label>
IRF reporter

>  <result>
0.948

$$$$
>  <compound>
CC(=O)Oc1ccc2occ(C(=O)c3cccs3)c2c1

>  <measurement label>
IRF reporter

>  <result>
1.17

$$$$
>  <compound>
COc1ccc(CN2CCN(C(c3ccc(F)cc3)c3ccc(F)cc3)CC2)c(OC)c1OC.Cl.Cl

>  <measurement label>
IRF reporter

>  <result>
1.02

$$$$
>  <compound>
COc1cc(OC)cc(C(=O)N2CCN(c3ccc(Nc4cccc(C)n4)nn3)CC2)c1

>  <measurement label>
IRF reporter

>  <result>
0.951

$$$$
>  <compound>
CC(=O)Oc1cc2c(s1)CCN(C(C(=O)C1CC1)c1ccccc1F)C2.Cl (centres undefined)

>  <measurement label>
IRF reporter

>  <result>
1.01

$$$$
>  <compound>
O=C(NN=Cc1c(O)ccc2ccccc12)c1ccncc1

>  <measurement label>
IRF reporter

>  <result>
1.26

$$$$
>  <compound>
COC(=O)c1cc(Br)ccc1NC(=O)c1ccccc1

>  <measurement label>
IRF reporter

>  <result>
1.24

$$$$
>  <compound>
Cc1cc(CCNS(=O)(=O)c2cccc(C(F)(F)F)c2)nn1C

>  <measurement label>
IRF reporter

>  <result>
0.961

$$$$
>  <compound>
O=C(CCCn1nc(-c2ccc(F)cc2)ccc1=O)Nc1ccc(C(F)(F)F)cc1

>  <measurement label>
IRF reporter

>  <result>
1.01

$$$$

====

test system: RAW-Dual (murine macrophage reporter line); assay: IRF reporter (Lucia luciferase) activity fold change vs agonist alone; higher = enhanced IRF activity; details: modulator concentration 10 µM; agonist: LPS 0.1 ug/mL
measurement label: IRF reporter

>  <molecule>
OC(C(=NN=C(c1ccccc1)C(O)c1ccccc1)c1ccccc1)c1ccccc1 (stereo not given)

>  <measurement label>
IRF reporter

>  <result>
1.48

$$$$
>  <molecule>
Cc1cc(C)n(-c2ccc(=O)n(CCNS(=O)(=O)c3ccccc3F)n2)n1

>  <measurement label>
IRF reporter

>  <result>
1.2

$$$$
>  <molecule>
Nc1ccn(C[C@@H](CO)OCP(=O)(O)O)c(=O)n1

>  <measurement label>
IRF reporter

>  <result>
1.3

$$$$
>  <molecule>
CC(C)NC(=O)CCn1c(=O)c2cc(Cl)ccc2n2c(SCc3ccc(F)cc3)nnc12

>  <measurement label>
IRF reporter

>  <result>
1.15

$$$$
>  <molecule>
CCCS(=O)c1ccc2nc(NC(=O)OC)[nH]c2c1 (stereo not given)

>  <measurement label>
IRF reporter

>  <result>
0.927

$$$$
>  <molecule>
COc1cc2c(cc1OC)CN(CCc1ccc(NC(=O)c3cccc4c(=O)c5cccc(OC)c5[nH]c34)cc1)CC2

>  <measurement label>
IRF reporter

>  <result>
1.42

$$$$
>  <molecule>
CN1CCN(c2ccc(-c3cccc(NC(=O)c4ccc5ccccc5c4)c3)nn2)CC1

>  <measurement label>
IRF reporter

>  <result>
1.88

$$$$
>  <molecule>
CCOc1ccc(N=Cc2c(Nc3ccc(OCC)cc3)nc3ccccn3c2=O)cc1

>  <measurement label>
IRF reporter

>  <result>
1.23

$$$$
>  <molecule>
COc1cc(=O)n(C)cc1C(=O)Nc1cccnc1

>  <measurement label>
IRF reporter

>  <result>
0.899

$$$$
>  <molecule>
Cc1cc(=O)n(CC(=O)N2CCC(c3ccccc3F)S(=O)(=O)CC2)cn1 (stereo not given)

>  <measurement label>
IRF reporter

>  <result>
1.12

$$$$
